System: SN12C renal
procedure-details: NCI tumour cell line growth inhibition, 48 h
attribute-measured: GI50

Note to self: GI50 of O=C(Cn1c(C(=O)c2ccccc2)nc2ccccc21)c1ccc(F)cc1 with SN12C renal was > 30.7 µM

Note to self: GI50 of COC(=O)c1ccc2c(c1)c1c(C)c3ccncc3c(C)c1n2C with SN12C renal was 0.214 µM

Note to self: GI50 of CO[C@@H]1[C@H]2[C@@H](C)c3ccoc3C[C@@H]2[C@@]2(C)CC[C@H](OC(=O)c3ccccc3)[C@](C)(C(=O)O)[C@]2(O)[C@@H]1OC(=O)c1ccccc1 with SN12C renal was 7.11 µM

Note to self: GI50 of O=C(NNC(=S)Nc1ccccc1)c1ccccn1 with SN12C renal was 2.99 µM

Note to self: GI50 of CCCN1C(=O)/C(=C/c2ccc(O)cc2)SC1=Nc1ccc(OC)cc1 with SN12C renal was 16.8 µM

###

Test system: NCI-H522 lung
procedure-details: NCI tumour cell line growth inhibition, 48 h; in the data active means GI50 below about 0.43 µM; inactive means the rest
Your answer must be one of the following: active, inactive

Inquiry: Hi, sorry to bother you, what did the test record for N#Cc1c(N)nc(N2CCSCC2)c(C#N)c1-c1ccc(O)cc1 ?
Reply text: inactive

Inquiry: Hi, sorry to bother you, what did the test record for COc1ccc2c(c1)N(CCO)C1=C(C(=O)OC1)C2c1ccccc1 (centres undefined) ?
Reply text: inactive

Inquiry: Hi, sorry to bother you, what did the test record for COc1cc(-c2ccc(NC(=O)NC3CC3)c(OC)c2)ccc1NC(=O)NC1CC1 ?
Reply text: inactive

Inquiry: Hi, sorry to bother you, what did the test record for CC(C)(C)NC/C(=C\c1ccccc1)C(=O)c1ccccc1 ?
Reply text: active

Inquiry: Hi, sorry to bother you, what did the test record for COc1ccc(CNc2cnc3cc(N)cc(N)c3n2)cc1 ?
Reply text: inactive

Inquiry: Hi, sorry to bother you, what did the test record for NC(=Nc1nc(-c2ccccn2)cc2ccccc12)c1ccccn1 ?
Reply text: active

Inquiry: Hi, sorry to bother you, what did the test record for CCCCCCN(C)Cc1ccc(OCCOc2ccc(CN(C)CCCCCC)cc2)cc1 ?
Reply text: inactive

Inquiry: Hi, sorry to bother you, what did the test record for Cc1cn2c(/C=C3/C(=O)Nc4ccc(F)cc43)c(C)nc2s1 ?
Reply text: inactive

Inquiry: Hi, sorry to bother you, what did the test record for COc1cc(/C=C\c2cc(/C=C\c3ccc(O)c(OC)c3)n(C(=O)CNc3ccc(Cl)cc3)n2)ccc1O ?
Reply text: inactive

Inquiry: Hi, sorry to bother you, what did the test record for COc1ccc2c(c1)C(=O)c1c-2n(CCCN)c(=O)c2cc(OC)c(OC)cc12 ?
Reply text: active

Inquiry: Hi, sorry to bother you, what did the test record for C[C@@H]1CC[C@@H]2[C@@H](C)C[C@H]3[C@@H]4C(C)(C)OC(=O)[C@]4(C)C(=O)[C@@]23C1=O ?
Reply text: inactive

Inquiry: Hi, sorry to bother you, what did the test record for COC(=O)c1ccc2c(c1)c1c(C)c3ccncc3c(C)c1n2C ?
Reply text: inactive

Inquiry: Hi, sorry to bother you, what did the test record for Cc1cc(NNC(=O)c2ccccc2O)nc(Nc2nc3ccccc3o2)n1 ?
Reply text: inactive

Inquiry: Hi, sorry to bother you, what did the test record for CCCN1C(=O)/C(=C/c2ccc(O)cc2)SC1=Nc1ccc(OC)cc1 ?
Reply text: inactive

###

System: A549 NSCLC
procedure-details: NCI tumour cell line growth inhibition, 48 h
attribute-measured: TGI (µM)
The reply should contain only the number, in µM.

Lookup result for CCOC(=O)C1SC(=Nc2ccc(Cl)cc2C)N=C1C (stereo not given) ; measured TGI: 86.2

Lookup result for CCN(CC)CC(C)(C)C(=O)/C=C/c1ccc(/C=C/C(=O)C(C)(C)CN(CC)CC)cc1 ; measured TGI: 5.76

###

For each of the molecules below, state its TGI.
System: SF-539 CNS
procedure-details: NCI tumour cell line growth inhibition, 48 h

Lookup result for CN(C)c1ccc(C2ON=C(c3ccccc3)N2C23CC4CC(CC(C4)C2)C3)cc1 (stereo not drawn) ; measured TGI: > 10 µM

Lookup result for O=C(O)CCSC(=O)Nc1ccccc1Cl ; measured TGI: > 100 µM

Lookup result for O=C(Nc1nc(C23CC4CC(CC(C4)C2)C3)cs1)c1cc2c(ccc3ccccc32)oc1=O ; measured TGI: > 100 µM

Lookup result for CC1CC(C)C2=NOS3=C2C1=NO3 (stereo not drawn) ; measured TGI: > 100 µM

Lookup result for CC1=C2[C@H](c3ccccc3)C3C=CC2(c2ccccc23)N(C(=O)C(c2ccccc2)c2ccccc2)C1=O (stereo partly drawn) ; measured TGI: > 100 µM

Lookup result for NC(N)=NS(=O)(=O)c1ccc(NC(=O)c2ccc3[nH]c4ccccc4c(=O)c3c2)cc1 ; measured TGI: > 100 µM

Lookup result for C/C(CCn1[nH]c(=O)ccc1=O)=N\Nc1ccc([N+](=O)[O-])cc1[N+](=O)[O-] ; measured TGI: > 100 µM

Lookup result for CC1(C)CN=C(Nc2ccc(F)c(F)c2)S1 ; measured TGI: > 100 µM

Lookup result for CCCCCCN(C)Cc1ccc(OCCOc2ccc(CN(C)CCCCCC)cc2)cc1 ; measured TGI: 2.92 µM

Lookup result for COc1cc2c(c(OC(C)=O)c1OC(C)=O)-c1ccc(SC)c(=O)cc1C(NC(C)=O)CC2 (stereo not drawn) ; measured TGI: 1.64 µM

Lookup result for C#CCN(N=O)C(=O)NCCCC(NC(C)=O)C(=O)NCc1ccccc1 (stereo not drawn) ; measured TGI: > 100 µM

Lookup result for O=C(CN(c1ccc(S(=O)(=O)O)cc1)c1ccc(S(=O)(=O)O)cc1)Nn1cnc2ccc(S(=O)(=O)N(c3ccc(S(=O)(=O)O)cc3)c3ccc(S(=O)(=O)O)cc3)cc2c1=O ; measured TGI: > 100 µM

Lookup result for CO[C@@H]1[C@H]2[C@@H](C)c3ccoc3C[C@@H]2[C@@]2(C)CC[C@H](OC(=O)c3ccccc3)[C@](C)(C(=O)O)[C@]2(O)[C@@H]1OC(=O)c1ccccc1 ; measured TGI: 16.5 µM

Lookup result for COC(=O)C(=O)C(C(=O)C(=O)Nc1ccc(C)cc1)c1nc2ccc(C(=O)c3ccccc3)cc2[nH]c1=O (stereo not drawn) ; measured TGI: > 100 µM

Lookup result for CCOC(=O)c1csc(NC(=O)COc2cccc(/C=C3\CSc4ccccc4C3=O)c2)n1 ; measured TGI: 1.6 µM

Lookup result for CCOC(=O)NC(Nc1ccc(Cl)cn1)(C(F)(F)F)C(F)(F)F ; measured TGI: > 100 µM

Lookup result for O=C(N/N=C(/COc1cccc(Cl)c1)N=Cc1cccnc1)c1ccncc1 ; measured TGI: > 100 µM

Lookup result for CC(NC(NC(C)C12CC3CC(CC(C3)C1)C2)=C(C(Cl)=C(Cl)Cl)[N+](=O)[O-])C12CC3CC(CC(C3)C1)C2 (stereo not drawn) ; measured TGI: 69 µM

###

Tested on: MOLT-4 leukemia
procedure-details: NCI tumour cell line growth inhibition, 48 h
For each of the molecules below, state its TGI.

Lookup result for CC(O)CN1c2ccccc2Sc2ccc(Cl)cc21 (stereo not given) ; measured TGI: > 10 µM

Lookup result for O=C(NN1C(=O)CSC12CCCC2)C(O)c1ccccc1 (stereo not given) ; measured TGI: > 100 µM

Lookup result for CC(=O)O/N=C(Cl)/C(Cl)=N/OC(C)=O ; measured TGI: > 100 µM

Lookup result for O=C(c1ccccc1)c1c(CC(O)c2ccccc2)n(C(=O)c2ccccc2)c2ccccc12 (stereo not given) ; measured TGI: 54.4 µM

Lookup result for COc1cc2c(c(OC(C)=O)c1OC(C)=O)-c1ccc(SC)c(=O)cc1C(NC(C)=O)CC2 (stereo not given) ; measured TGI: > 100 µM

Lookup result for Cc1ccc(NC(=O)CC/C(CC(=O)C(C)(C)C)=N\Nc2ccc([N+](=O)[O-])cc2[N+](=O)[O-])cc1C ; measured TGI: > 100 µM

Lookup result for COc1ccc(-c2nc(-c3cnccn3)n(COCCO)n2)cc1 ; measured TGI: > 100 µM

Lookup result for NC(=S)NS(=O)(=O)c1ccc(F)cc1F ; measured TGI: > 100 µM

Lookup result for COc1cc(/C=C\c2cc(/C=C\c3ccc(O)c(OC)c3)n(C(=O)CNc3ccc(Cl)cc3)n2)ccc1O ; measured TGI: 15.6 µM

Lookup result for CN1CCN(Cc2ccc(NC(=O)c3cncc(C#Cc4cnn5ccccc45)c3)cc2C(F)(F)F)CC1 ; measured TGI: 3.56 µM

###

For each of the molecules below, state its TGI.
System: COLO 205 colon
procedure-details: NCI tumour cell line growth inhibition, 48 h

Lookup result for CC1=NN(C(=O)c2ccc(Cl)cc2)C(=O)/C1=C/c1ccco1 ; measured TGI: > 100 µM

Lookup result for BrCC(Br)(c1ccccc1)c1ccccc1-c1cc(-c2ccccc2)cc(-c2ccccc2)n1 (stereo unspecified) ; measured TGI: 2.81 µM

Lookup result for NNC(=S)Nc1cccc(Cl)c1 ; measured TGI: > 100 µM

Lookup result for COc1cc2ncn(-c3cc(OCc4ccccc4C(F)(F)F)c(C(C)=O)s3)c2cc1OC ; measured TGI: > 25 µM

Lookup result for CN(C)c1ccc(C2ON=C(c3ccccc3)N2C23CC4CC(CC(C4)C2)C3)cc1 (stereo unspecified) ; measured TGI: > 10 µM

Lookup result for CCOC(=O)c1cc(-c2ccc(OC)c(OC)c2)[nH]c1N/N=C/c1c(Cl)cccc1Cl ; measured TGI: > 100 µM
